Kindly state Kd for each of the entries shown.
- experimental.system: Carbonic anhydrase 2 (Bos taurus, UniProt P00921)
- Sequence (P00921 whole entry): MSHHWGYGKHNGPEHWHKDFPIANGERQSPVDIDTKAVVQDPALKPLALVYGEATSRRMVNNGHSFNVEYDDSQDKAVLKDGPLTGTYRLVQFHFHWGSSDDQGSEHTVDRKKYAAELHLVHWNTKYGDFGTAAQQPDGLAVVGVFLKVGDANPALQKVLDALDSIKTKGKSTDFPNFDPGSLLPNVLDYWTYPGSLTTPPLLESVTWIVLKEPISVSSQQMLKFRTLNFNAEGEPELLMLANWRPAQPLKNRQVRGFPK
Give bare numbers, in nM.

>>> measured("NS(=O)(=O)c1ccc2nc3n(c2c1)N=S=C3N1CCOCC1")
38
>>> measured("NS(=O)(=O)c1ccc2nc3n(c2c1)N=S=C3")
286
>>> measured("NS(=O)(=O)c1ccc2nc3n(c2c1)N=S=C3Cl")
141
>>> measured("NS(=O)(=O)c1ccc2nc3n(c2c1)N=S=C3Sc1ccccc1")
285
>>> measured("CN1CCN(C2=S=Nn3c2nc2ccc(S(N)(=O)=O)cc23)CC1")
391

// switching to the query compound
Query: # query: Kd of entry CS(=O)(=O)C1=S=Nn2c1nc1ccc(S(N)(=O)=O)cc12
Reply: 500
